system: OVCAR-3; test: NCI tumour cell line growth inhibition, 48 h
Calls of active or inactive are those of the source. Cut-off read from the data, not from the text of the source: active = GI50 up to about 1.1 µM and inactive = higher.
quantityName: GI50

Worked cases, GI50 given:
compound	GI50
O=[N+]([O-])c1cccc(C(O)/C(=N/Nc2ccccc2)C2Nc3ccc([N+](=O)[O-])cc3N=C2O)c1 (stereo unspecified)	66.7 µM (inactive)
N#CC1C(=O)NC(=O)C1=O (stereo unspecified)	> 100 µM (inactive)
N#C/C(=C1\OC(=O)C(c2ccc(Br)cc2)=C1O)c1ccc(Br)cc1	14.9 µM (inactive)
Cc1ccc(/N=C/c2ccc3c(c2)OCO3)cc1C	> 100 µM (inactive)
CCCCN/C(=N/C#N)NCc1ccccc1	> 100 µM (inactive)

[in] For the compound shown here, O=CN/C=C/c1ccc(O)c(O)c1 , give the reported GI50.
[out] > 100 µM (inactive)
